Listing of entries alongside the reported pIC50.
system: MDA-MB-231; experiment: cells; conditions: Homo sapiens, MDA-MB-231, 24 h
pIC50: −log10 of the molar value.

{"mol": "COc1ccc2oc(-c3ccccc3)cc(=S)c2c1", "value_modifier": "<", "pIC50": 4.30}
{"mol": "COc1cc(OC)c2c(=O)[nH]c(-c3ccc(OCC(=O)NC4CCN(C(=O)OC(C)(C)C)CC4)cc3)nc2c1", "value_modifier": "=", "pIC50": 4.88}
{"mol": "Cc1ccc(-c2nc3ccccc3c(=O)[nH]2)cc1", "value_modifier": "<", "pIC50": 4.30}
{"mol": "COc1cc(OC)c2c(=O)[nH]c(-c3ccc(OCC(=O)Nc4ccc(N5CCCC5)cc4)cc3)nc2c1", "value_modifier": "=", "pIC50": 4.71}
{"mol": "COc1cc(OC)c2c(=O)[nH]c(-c3ccc(OCC(=O)Nc4cc(OC)c(OC)c(OC)c4)cc3)nc2c1", "value_modifier": "=", "pIC50": 4.63}
{"mol": "COC(=O)COc1ccc(-c2nc3cc(OC)cc(OC)c3c(=O)[nH]2)cc1", "value_modifier": "=", "pIC50": 4.66}
{"mol": "COc1cc(OC)c2c(=O)[nH]c(-c3ccc(OCC(=O)Nc4ccc(N5CCOCC5)c(F)c4)cc3)nc2c1", "value_modifier": "=", "pIC50": 5.15}
{"mol": "COc1cc(OC)c2c(=O)[nH]c(-c3cc(C)c(OCC(=O)NC4CCN(C)CC4)c(C)c3)nc2c1", "value_modifier": "=", "pIC50": 4.76}
{"mol": "COc1cc(OC)c2c(=O)[nH]c(-c3cc(C)c(OCC(=O)NCC4CCOCC4)c(C)c3)nc2c1", "value_modifier": "=", "pIC50": 4.63}

====

target: Bromodomain-containing protein 2 (Homo sapiens); assay: Inhibition of BRD2 BD1 (unknown origin) incubated for 2 hrs by TR-FRET assay

{"mol": "COc1cc(OC)c2c(=O)[nH]c(-c3ccc(OCC(=O)Nc4ccc(N5CCN(C)CC5)c(Cl)c4)cc3)nc2c1", "IC50": "> 10 µM"}

====

target: Bromodomain-containing protein 4 (Homo sapiens, UniProt O60885); assay: Inhibition of BRD4 BD2 (unknown origin) incubated for 2 hrs by TR-FRET assay
measurement_label: IC50 (µM)

{"mol": "COc1cc(OC)c2c(=O)[nH]c(-c3ccc(OCC(=O)Nc4ccc(N5CCN(C)CC5)c(Cl)c4)cc3)nc2c1", "experimental_system": "Bromodomain-containing protein 4 (Homo sapiens, UniProt O60885)", "measurement_label": "IC50", "quantity_unit": "µM", "result": 0.098}

====

biological target: Bromodomain-containing protein 4 (Homo sapiens); assay: Inhibition of BRD4 BD1/BD2 (unknown origin) incubated for 2 hrs by TR-FRET assay
measurement_label: IC50 (nM)

{"mol": "COc1cc(OC)c2c(=O)[nH]c(-c3ccc(OCC(=O)Nc4ccc(N5CCN(C)CC5)c(Cl)c4)cc3)nc2c1", "quantity_unit": "nM", "result": 180}

====

As shown below, each of these molecules has a reported log10 of IC50 value.
test system: MDA-MB-231; assay: cells; conditions: Homo sapiens, MDA-MB-231, 24 h
measurement_label: log10 of IC50 (log10 of the value in µM)

{"mol": "COc1cc(OC)c2c(=O)[nH]c(-c3cc(C)c(OCC(=O)Nc4ccc(N5CCOCC5)cc4)c(C)c3)nc2c1", "log10 of IC50": 0.92}
{"mol": "COc1cc(OC)c2c(=O)[nH]c(-c3ccc(OCC(=O)Nc4cccc(N5CCN(C)CC5)c4)cc3)nc2c1", "log10 of IC50": 1.12}
{"mol": "COc1cc(OC)c2c(=O)[nH]c(-c3cc(C)c(O)c(C)c3)nc2c1", "log10 of IC50": 1.24}
{"mol": "COc1cc(OC)c2c(=O)[nH]c(-c3ccc(OCC(=O)Nc4ccc(N5CCN(C)CC5)c(F)c4)cc3)nc2c1", "log10 of IC50": 0.80}
{"mol": "COc1cc(OC)c2c(=O)[nH]c(-c3ccc(OCC(=O)Nc4ccc(N5CCOCC5)c(Cl)c4)cc3)nc2c1", "log10 of IC50": 0.66}
{"mol": "COc1cc(OC)c2c(=O)[nH]c(-c3ccc(C)cc3)nc2c1", "log10 of IC50": 1.66}
{"mol": "COc1cc(OC)c2c(=O)[nH]c(-c3cc(C)c(OCC(=O)Nc4cc(OC)c(OC)c(OC)c4)c(C)c3)nc2c1", "log10 of IC50": 1.39}
{"mol": "COc1cccc(-c2nc3cc(OC)cc(OC)c3c(=O)[nH]2)c1", "log10 of IC50": 1.58}
{"mol": "COc1cc(OC)c2c(=O)[nH]c(-c3ccc(OCC(=O)Nc4ccc(N5CCOCC5)cc4)cc3)nc2c1", "log10 of IC50": 0.88}
{"mol": "COc1cc(OC)c2c(=O)cc(-c3cc(C)cc(C)c3)oc2c1", "log10 of IC50": 1.68}
{"mol": "COc1cc(OC)c2c(=O)[nH]c(-c3ccc(O)c(Br)c3)nc2c1", "log10 of IC50": 1.37}
{"mol": "Cc1ccc2nc(-c3ccc(OCC(=O)Nc4ccc(N5CCN(C)CC5)c(Cl)c4)cc3)[nH]c(=O)c2c1", "log10 of IC50": 1.24}
{"mol": "COc1cc(OC)c2c(=O)[nH]c(-c3ccc(OCC(=O)Nc4ccc(N5CCCCC5)cc4)cc3)nc2c1", "log10 of IC50": 1.01}
{"mol": "COc1cc(OC)c2c(=O)[nH]c(-c3cc(C)c(OCC(=O)Nc4ccc(N5CCN(C)CC5)cc4)c(C)c3)nc2c1", "log10 of IC50": 1.03}
{"mol": "COc1cc(OC)c2c(=O)[nH]c(-c3cc(C)c(Br)c(C)c3)nc2c1", "log10 of IC50": 1.40}

====

molecular target: Bromodomain testis-specific protein (Homo sapiens, UniProt Q58F21); assay: Inhibition of BRDT BD1 (unknown origin) incubated for 2 hrs by TR-FRET assay
pIC50: −log10 of the molar value.

{"mol": "COc1cc(OC)c2c(=O)[nH]c(-c3ccc(OCC(=O)Nc4ccc(N5CCN(C)CC5)c(Cl)c4)cc3)nc2c1", "experimental_system": "Bromodomain testis-specific protein (Homo sapiens, UniProt Q58F21)", "pIC50": "< 5.00"}

====

test: Cmax in Sprague-Dawley rat at 1 mg/kg, iv by LC-MS analysis; format: ADME, organism-based; set-up: dose 1 mg/kg, route iv; details: in vivo

{"mol": "COc1cc(OC)c2c(=O)[nH]c(-c3ccc(OCC(=O)Nc4ccc(N5CCN(C)CC5)c(Cl)c4)cc3)nc2c1", "Cmax [ng/mL]": 237}

====

assay: AUC(0 to t) in Sprague-Dawley rat at 10 mg/kg, po by LC-MS analysis; assay type: ADME, organism-based; parameters: dose 10 mg/kg, route po; details: in vivo

{"mol": "COc1cc(OC)c2c(=O)[nH]c(-c3ccc(OCC(=O)Nc4ccc(N5CCN(C)CC5)c(Cl)c4)cc3)nc2c1", "AUC(0-t), ng·h/mL": 2080}

====

target: Bromodomain-containing protein 4 (Homo sapiens, UniProt O60885); assay: Inhibition of BRD4 BD1 (unknown origin) incubated for 2 hrs by TR-FRET assay

{"mol": "COc1cc(OC)c2c(=O)[nH]c(-c3ccc(OCC(=O)Nc4ccc(N5CCN(C)CC5)c(Cl)c4)cc3)nc2c1", "IC50 [nM]": 193}

====

molecular target: Bromodomain-containing protein 2 (Homo sapiens, UniProt P25440); assay: Inhibition of BRD2 BD2 (unknown origin) incubated for 2 hrs by TR-FRET assay
Sequence (P25440 whole entry): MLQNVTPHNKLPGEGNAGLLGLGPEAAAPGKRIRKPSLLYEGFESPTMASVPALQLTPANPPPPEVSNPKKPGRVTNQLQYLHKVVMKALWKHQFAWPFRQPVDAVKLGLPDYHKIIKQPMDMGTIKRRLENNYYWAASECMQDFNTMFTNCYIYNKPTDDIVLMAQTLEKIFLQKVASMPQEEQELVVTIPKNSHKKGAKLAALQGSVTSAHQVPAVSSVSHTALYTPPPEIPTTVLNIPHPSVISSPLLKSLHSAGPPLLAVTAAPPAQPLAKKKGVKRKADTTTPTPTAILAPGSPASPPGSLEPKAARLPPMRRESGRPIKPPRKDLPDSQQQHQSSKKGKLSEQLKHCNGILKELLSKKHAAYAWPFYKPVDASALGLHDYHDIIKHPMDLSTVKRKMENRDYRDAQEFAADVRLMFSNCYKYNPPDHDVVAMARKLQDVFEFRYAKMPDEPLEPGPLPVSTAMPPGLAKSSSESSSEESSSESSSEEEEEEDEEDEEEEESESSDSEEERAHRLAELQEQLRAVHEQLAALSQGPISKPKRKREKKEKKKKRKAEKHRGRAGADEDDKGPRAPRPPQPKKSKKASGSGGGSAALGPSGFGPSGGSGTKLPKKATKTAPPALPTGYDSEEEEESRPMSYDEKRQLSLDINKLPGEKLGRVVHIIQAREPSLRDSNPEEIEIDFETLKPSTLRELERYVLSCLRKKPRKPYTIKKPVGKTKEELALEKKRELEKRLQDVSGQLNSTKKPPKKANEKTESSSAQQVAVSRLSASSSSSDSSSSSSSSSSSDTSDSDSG
pIC50: −log10 of the molar value.

{"mol": "COc1cc(OC)c2c(=O)[nH]c(-c3ccc(OCC(=O)Nc4ccc(N5CCN(C)CC5)c(Cl)c4)cc3)nc2c1", "pIC50": 5.06}

====

target: Bromodomain testis-specific protein (Homo sapiens); assay: Inhibition of BRDT BD2 (unknown origin) incubated for 2 hrs by TR-FRET assay
pIC50: −log10 of the molar value.
measurement_label: pIC50

{"mol": "COc1cc(OC)c2c(=O)[nH]c(-c3ccc(OCC(=O)Nc4ccc(N5CCN(C)CC5)c(Cl)c4)cc3)nc2c1", "measurement_label": "pIC50", "result": "< 5.00"}

====

target: Casein kinase II subunit alpha (Homo sapiens); assay: Inhibition of CK2 (unknown origin)
Sequence (P68400 whole entry): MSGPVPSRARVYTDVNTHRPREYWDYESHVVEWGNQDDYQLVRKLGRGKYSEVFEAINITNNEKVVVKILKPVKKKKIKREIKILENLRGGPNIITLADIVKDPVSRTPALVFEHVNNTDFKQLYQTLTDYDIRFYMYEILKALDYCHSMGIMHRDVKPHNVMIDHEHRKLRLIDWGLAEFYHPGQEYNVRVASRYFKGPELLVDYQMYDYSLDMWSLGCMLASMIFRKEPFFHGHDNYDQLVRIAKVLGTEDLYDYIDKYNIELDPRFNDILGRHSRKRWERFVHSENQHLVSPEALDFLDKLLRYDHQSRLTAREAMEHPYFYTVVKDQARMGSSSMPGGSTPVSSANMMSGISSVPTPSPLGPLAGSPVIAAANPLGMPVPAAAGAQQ
pIC50: −log10 of the molar value.

{"mol": "COc1cc(OC)c2c(=O)[nH]c(-c3ccc(OCC(=O)Nc4ccc(N5CCN(C)CC5)c(Cl)c4)cc3)nc2c1", "pIC50": 6.64}
